From: ChEMBL document CHEMBL1147682

Recorded below: Ki, system 5-hydroxytryptamine receptor 1A (Rattus norvegicus, UniProt P19327).
Write the value in nM as a bare number.

Request the reported Ki associated with `Cc1ccc(-c2nn(CCCCN3CCN(c4cccc(C(F)(F)F)c4)CC3)c(=O)c3ccccc23)cc1`
71.8

Request the reported Ki associated with `Cc1ccc(-c2nn(CCCCN3CCN(c4ccccc4OC(C)C)CC3)c(=O)c3ccccc23)cc1`
81

Request the reported Ki associated with `CCOc1ccccc1N1CCN(CCCCn2nc(-c3ccc(C)cc3)c3ccccc3c2=O)CC1`
41

New cases:
Request the reported Ki associated with `Cc1ccc(-c2nn(CCCCN3CCN(c4ncccn4)CC3)c(=O)c3ccccc23)cc1`
1180

Request the reported Ki associated with `Cc1ccc(-c2nn(CCCCN3CCN(c4cccc(Cl)c4)CC3)c(=O)c3ccccc23)cc1`
116

Request the reported Ki associated with `Cc1ccc(-c2nn(CCCCCCCN3CCN(c4cccc(Cl)c4)CC3)c(=O)c3ccccc23)cc1`
673

Request the reported Ki associated with `CCOc1ccccc1N1CCN(CCCCCCCn2nc(-c3ccc(C)cc3)c3ccccc3c2=O)CC1`
207

Request the reported Ki associated with `Cc1ccc(-c2nn(CCN3CCN(c4ccccc4)CC3)c(=O)c3ccccc23)cc1`
6200
